Molecular target: T1, 4H341-AA
T1 chain: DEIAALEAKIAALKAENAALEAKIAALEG
Test: two-hybrid library CCmax;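 note: natural log of median RNA to DNA barcode read ratio; higher means stronger binding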
Conditions: mean of both orientations
Would you please tag the item Y when its interaction score is 0.03 or above, and N when it is below?

As a guide, the following entries are already answered.
binder | assignedLabel
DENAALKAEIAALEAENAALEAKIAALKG [4H1558-AA] | Y
DEIAALEAKIAALKAEIAALEAENAALKG [4H324-AA] | N
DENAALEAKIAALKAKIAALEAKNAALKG [4H1384-AA] | N
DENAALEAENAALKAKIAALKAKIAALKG [4H1262-AA] | N
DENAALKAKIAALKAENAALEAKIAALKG [4H1878-AA] | N
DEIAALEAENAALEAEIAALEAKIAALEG [4H133-AA] | N
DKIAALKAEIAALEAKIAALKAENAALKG [4H2604-AA] | Y
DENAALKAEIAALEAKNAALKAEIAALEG [4H1593-AA] | Y

Query :: Assess whether reported interaction score for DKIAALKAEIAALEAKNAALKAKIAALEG [4H2621-AA] sits at 0.03 or higher.
Result :: Y

Query :: Reported interaction score reaches at least 0.03 for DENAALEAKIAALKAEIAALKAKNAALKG [4H1360-AA] ?
Result :: N

Query :: In plain terms: is recorded interaction score at least 0.03 for DKNAALEAEIAALEAKNAALKAEIAALEG [4H3129-AA] ?
Result :: Y

Query :: Confirm if interaction score reported for the binder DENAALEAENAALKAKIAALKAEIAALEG [4H1257-AA] is 0.03 or above.
Result :: N

Query :: Item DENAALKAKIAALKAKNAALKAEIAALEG [4H1913-AA] with interaction score of 0.03 or above?
Result :: Y

Query :: Does interaction score meet or surpass 0.03 for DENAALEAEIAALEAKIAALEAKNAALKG [4H1064-AA] ?
Result :: N
